Origin of measurements: the supplement of paper PMC10065799

# Tested on: Fer (mouse)
# procedure_summary: phosphorylation enrichment, bacterial display (enrichment ratio); higher = better substrate or ligand; peptides without Tyr show the background
Listed below: phosphorylation enrichment values for each entry.

QPDFLYDHIQP [TRRAP_Y862] ... 12
ILTYKYLQKPM [KIT_Y547] ... 0.495
ANSPVYVPTTR [GATA6_Y188_S184N] ... 0.44

## Input What reported phosphorylation enrichment corresponds to AVVEPYNSLLT [TUBA1A_Y185_I188L] on Fer (mouse)?
## Output 0.394

## Input What about FGAHNYHPLPV [OAT_Y55_YF] ?
## Output 0.35

###

Listing of recorded phosphorylation enrichment by entry.
# Test system: AncSZ
# procedure_summary: phosphorylation enrichment, bacterial display (enrichment ratio); higher = better substrate or ligand; peptides without Tyr show the background
When you answer, write just the number.

TPIFPYLLPKS [PLD2_Y580_T577I_YF] ... 0.632
MDFRSYPREFG [RBM10_Y44_YF] ... 0.606
DEENFYQGSME [ASCC1_Y36_D34N] ... 1.3
QRCYVYYYSYL [PTEN_Y176_R173C] ... 1.86
ATATEYHTTSH [SLC4A1_Y46_D45E] ... 0.506

## Input Form field: reported phosphorylation enrichment of HSGLAYTMERS [GLUD1_Y512]
## Output 0.933

## Input Please answer likewise for CDKEFYSVHNK [MET_Y1235_Y1230C_YF]
## Output 0.732

## Input Try this sequence too: PQAVTYAEVKH [LILRB4_Y360_K362E]
## Output 0.872

## Input Next: REVPVYTFSEP [FAM120B_Y368_D370Y_YF]
## Output 1.83

## Input Another sequence: SVVVPYEPPED [TP53_Y220_V225D]
## Output 1.31

## Input Same thing, different sequence: VMSGPYELKAL [IL1B_Y140]
## Output 0.51

## Input Another sequence: ECKASYPGKIT [PRSS3_Y232]
## Output 0.53

## Input Ok, now VYLGAYDCFLP [SLC22A5_Y486_R488C]
## Output 2.18

###

# target_under_test: Hck (UniProt P08631)
# Sequence (P08631 whole entry, looked up): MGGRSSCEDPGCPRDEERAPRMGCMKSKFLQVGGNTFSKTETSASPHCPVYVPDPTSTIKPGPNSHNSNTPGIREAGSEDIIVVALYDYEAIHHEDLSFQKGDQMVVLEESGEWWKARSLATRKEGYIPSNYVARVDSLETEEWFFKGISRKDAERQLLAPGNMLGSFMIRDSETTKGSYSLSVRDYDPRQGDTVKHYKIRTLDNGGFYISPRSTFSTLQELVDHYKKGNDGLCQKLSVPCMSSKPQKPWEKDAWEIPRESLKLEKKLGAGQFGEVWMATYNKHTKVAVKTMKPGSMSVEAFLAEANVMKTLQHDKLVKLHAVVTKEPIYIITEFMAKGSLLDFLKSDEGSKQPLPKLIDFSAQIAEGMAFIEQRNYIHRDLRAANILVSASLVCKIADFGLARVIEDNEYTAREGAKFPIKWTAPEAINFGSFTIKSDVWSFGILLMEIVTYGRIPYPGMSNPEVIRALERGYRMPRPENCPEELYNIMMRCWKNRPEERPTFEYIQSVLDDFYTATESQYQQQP
# procedure_summary: phosphorylation enrichment, bacterial display (enrichment ratio); higher = better substrate or ligand; peptides without Tyr show the background
Decision: phosphorylation enrichment compared against 0.6; not below it gives Fulfilled, below it gives Not fulfilled.

PLKALYLQQRP [ATM_Y2969] ... Fulfilled
GDAMLYFPSVS [GPR143_Y177_A173D_YF] ... Fulfilled
IRFSDYVEVAD [PHACTR1_Y525] ... Not fulfilled

## Input API: above_or_equal(metric=phosphorylation enrichment, cutoff=0.6) for item RKLVDYDSAQH [BIN1_Y150_R154Q]
## Output Fulfilled

## Input // same read-out, input: YTGDIYSSSNL [LZTR1_Y141_N143S]
## Output Fulfilled

## Input IRTIDYRYTVW [IDS_Y497] ?
## Output Not fulfilled

## Input Now give it for KSEMSYIDGEK [SORBS1_Y485] too.
## Output Not fulfilled

## Input And then FSGIFYKPESL [L2HGDH_Y103_H98Y_YF] , what is it?
## Output Not fulfilled

## Input Now give it for AVAFLYFKSIG [ADGRL4_Y301_V300L_YF] too.
## Output Not fulfilled

## Input Also GDFFRSLAEVA [YWHAG_Y133_Y133S_YF] ?
## Output Not fulfilled

## Input Next up: LWEGSYGKVKE [STK11_Y60_G56W]
## Output Fulfilled

## Input Now this one: LARNMYDKEFF [MET_Y1230_D1228N_YF]
## Output Fulfilled

## Input Further, for SSAETYSRMRL [NBEAL2_Y1835] ?
## Output Fulfilled

###

# target_under_test: c-Src SH2
# procedure_summary: SH2 binding enrichment of the phosphorylated peptide, bacterial display (enrichment ratio); higher = better substrate or ligand; peptides without Tyr show the background
Binning scheme for SH2 binding enrichment: lower segment = under 0.5, middle segment = from 0.5 up to 0.7, upper segment = 0.7 and over

Answered cases to consult:
SVVVTYEPPEV [TP53_Y220_P219T] ... upper segment
TVQVAYYTMMM [SPATA17_Y83] ... upper segment
NETNKYQISVN [FGB_Y368_A365T] ... lower segment
LIHLHYIRKDY [BBS4_Y43] ... upper segment
ENEGTYVCIAA [ADAMTSL3_Y1365_T1370A] ... lower segment
VECQVYAEDPY [PCCA_Y401_R399Q] ... lower segment

## Input Form: Item = NDPMEYAKQHG [ASS1_Y163_L160P] ; Class = ?
## Output lower segment

## Input And for SQGRQYQELPR [KCNH2_Y1009_R1005Q] ?
## Output upper segment

## Input Now the same for SVVVPYEPPED [TP53_Y220_V225D]
## Output upper segment

## Input Next entry: AGTIPYHAHLD [ASS1_Y291_L290P]
## Output middle segment

## Input // same read-out, input: TPIFPYLLPKS [PLD2_Y580_T577I_YF]
## Output lower segment

## Input One more sequence: KRELRYMHSRV [ABCD1_Y281_G277R]
## Output upper segment

## Input How about SAPDSYIGIGN [SLC38A4_Y27] ?
## Output middle segment

## Input Moving on to PQDSAYHSGIQ [FLG_Y3940_S3935P]
## Output lower segment

## Input Likewise for GSERDYTFEEL [EIF2S2_Y174_YF] ?
## Output middle segment

## Input Another sequence to look at: VIEQRYNETWL [SLC2A4_Y56_S55R]
## Output middle segment

## Input Entry DLLNSYTENEG [HSPA4L_Y600_I601T] please
## Output lower segment

## Input Would you kindly repeat that for IKRIAYEFVEM [ADA_Y84] ?
## Output upper segment

## Input Proceed to ECKFLYSRKEG [PTPN11_Y263_L261F]
## Output middle segment

## Input Item: PSAELYSFALP [PDGFRB_Y716_N718Y_YF]
## Output middle segment

###

# Test system: Fer (mouse)
# procedure_summary: phosphorylation enrichment, bacterial display (enrichment ratio); higher = better substrate or ligand; peptides without Tyr show the background
Below: a set of entries, each annotated with reported phosphorylation enrichment.
Keep it simple and answer with nothing but the number.

See these solved cases before continuing.
RPAPQYPHQVP [ADAM12_Y895] ... 0.685
RYVTRHIYNRE [HLA-DQB1_Y62_Y62H] ... 0.469
DTKPAYQNLRQ [BOD1_Y82] ... 0.385
KVITDYFVDMK [MPP4_Y566_YF] ... 0.451
REAMEYLESKQ [BTK_Y511_C506R] ... 0.704
QRTMKYTTATG [MCCC1_Y41] ... 0.722

## Input Fill in: phosphorylation enrichment of GPKSTYISSAG [GOLGA5_Y62_A67G] is ___
## Output 0.345

###

# target_under_test: Grb2 SH2 (UniProt P62993)
# Sequence (P62993 whole entry, looked up): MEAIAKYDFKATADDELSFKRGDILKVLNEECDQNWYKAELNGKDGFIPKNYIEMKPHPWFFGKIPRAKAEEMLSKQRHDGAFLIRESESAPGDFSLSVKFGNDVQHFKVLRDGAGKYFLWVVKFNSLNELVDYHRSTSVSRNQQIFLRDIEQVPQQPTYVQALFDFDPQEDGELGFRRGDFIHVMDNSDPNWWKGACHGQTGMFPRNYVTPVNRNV
# procedure_summary: SH2 binding enrichment of the phosphorylated peptide, bacterial display (enrichment ratio); higher = better substrate or ligand; peptides without Tyr show the background
Cut-off 0.8 on SH2 binding enrichment, inclusive. At or above means T; below means F.

Before answering, review these 8 worked examples.
LHQSTYQRFDV [SLC7A14_Y693_YF] ... T
CGSLLYGLVHQ [PRKCG_Y122] ... T
WFPANYVKLLS [ITSN1_Y1132] ... T
KVALVYGQMNE [ATP5F1B_Y269] ... T
HVLEEYKPKQG [SAXO2_Y37_P34L] ... F
SSTAMYSAAGR [PSMB1_Y8_P11A] ... T
NIRKKYFRAIL [CHD7_Y1217_Q1214R_YF] ... F
LRRFIYRPPDR [OTOF_Y1231] ... F

## Input Quick check, SH2 binding enrichment >= 0.8? SSAETYSRMRL [NBEAL2_Y1835]
## Output F

## Input Please give the result for IKNSGYISQFL [EIF2AK3_Y585_R588Q_YF] too.
## Output T

## Input // next record QEVLEYFMKQM [PIK3CA_Y1038_A1035V]
## Output F

###

# target_under_test: Grb2 SH2 (UniProt P62993)
# procedure_summary: SH2 binding enrichment of the phosphorylated peptide, bacterial display (enrichment ratio); higher = better substrate or ligand; peptides without Tyr show the background
Quick rule: SH2 binding enrichment of at least 0.9 means condition met, below that means condition not met.

Example entries begin here.
NTYEKYLEEEY [TF_Y669_G671E] ... condition not met
NTGVYYDLYGG [PTPN11_Y63_D61V] ... condition met
LIHLHYIRKDY [BBS4_Y43] ... condition met

## Input Item FTNRSYDLDFD [MYC_Y12_N11S_YF] with SH2 binding enrichment of 0.9 or above?
## Output condition not met

## Input Try VDSLRYIFPKL [EIF2B3_Y92_A87V_YF] next.
## Output condition met

## Input Similarly, EDASEYFENYI [PARP4_Y214] ?
## Output condition met

## Input // same read-out, input: `SKDSAYVTWEP`
## Output condition met

## Input Can you handle MIRSAYALRGL [CPS1_Y590_G593R] next?
## Output condition not met

## Input Input QRCYVYYYSYL [PTEN_Y176_R173C]
## Output condition met

## Input Let us now turn to FQASFYRRGDR [LTK_Y677_R673Q_YF]
## Output condition not met

## Input // repeat for QADVVYVNTQL [MERTK_Y872_I871V] and report
## Output condition met
